Tested on: L1210 leukemia ip in BDF1 mice, survival T/C
Experiment: NCI In Vivo Anticancer Drug Screen. Data for tumor model L1210 Leukemia (intraperitoneal) in B6D2F1 (BDF1) mice
Conditions: endpoint: mean survival time; dose: 100.0 mg/kg/injection; schedule: Q01DX009 (ip); vehicle: Klucel (hydroxypropylcellulose) (HPC); higher = longer survival
Toxic doses and inconclusive results are not listed.
Overview of recorded T/C for various compounds

>  <Compound>
CC(C)(COC(=O)c1ccccc1)COC(=O)c1ccccc1

>  <T/C>
116 % of control

$$$$
>  <Compound>
CC(=O)c1cccc(NC(=O)N2CCCCC2C)c1 (configuration not stated)

>  <T/C>
111 % of control

$$$$
>  <Compound>
O=[N+]([O-])c1ccc(N/N=C2/C(=C/c3cccc4ccccc34)CCc3ccccc32)c([N+](=O)[O-])c1

>  <T/C>
91 % of control

$$$$
>  <Compound>
COc1cc(OC)c(N=Cc2ccc3c(c2)OCO3)cc1Cl

>  <T/C>
91 % of control

$$$$
>  <Compound>
O=C(N/N=C/c1ccccc1[N+](=O)[O-])c1ccccc1

>  <T/C>
94 % of control

$$$$
>  <Compound>
[O-]c1c[n+](-c2ccc(Cl)cc2Cl)no1

>  <T/C>
100 % of control

$$$$
>  <Compound>
CC1(Br)C(=O)NC(=O)NC1O (configuration not stated)

>  <T/C>
94 % of control

$$$$
>  <Compound>
COc1cccc(/C(=C/c2ccc([N+](=O)[O-])cc2)C(=O)Nc2ccc(S(=O)(=O)F)cc2)c1

>  <T/C>
101 % of control

$$$$
>  <Compound>
CCCCCCCCCCCCCCCCCC(N)=O

>  <T/C>
87 % of control

$$$$
>  <Compound>
O=C(Cc1ccccc1)Nc1cccc(C(F)(F)F)c1

>  <T/C>
91 % of control

$$$$
>  <Compound>
NCC(=O)c1cc2ccccc2[n+]([O-])c1

>  <T/C>
87 % of control

$$$$
>  <Compound>
O=[N+]([O-])c1cccnc1Cl

>  <T/C>
95 % of control

$$$$
